Biological target: DPP-4 (Homo sapiens, UniProt P27487)
Sequence (P27487 whole entry): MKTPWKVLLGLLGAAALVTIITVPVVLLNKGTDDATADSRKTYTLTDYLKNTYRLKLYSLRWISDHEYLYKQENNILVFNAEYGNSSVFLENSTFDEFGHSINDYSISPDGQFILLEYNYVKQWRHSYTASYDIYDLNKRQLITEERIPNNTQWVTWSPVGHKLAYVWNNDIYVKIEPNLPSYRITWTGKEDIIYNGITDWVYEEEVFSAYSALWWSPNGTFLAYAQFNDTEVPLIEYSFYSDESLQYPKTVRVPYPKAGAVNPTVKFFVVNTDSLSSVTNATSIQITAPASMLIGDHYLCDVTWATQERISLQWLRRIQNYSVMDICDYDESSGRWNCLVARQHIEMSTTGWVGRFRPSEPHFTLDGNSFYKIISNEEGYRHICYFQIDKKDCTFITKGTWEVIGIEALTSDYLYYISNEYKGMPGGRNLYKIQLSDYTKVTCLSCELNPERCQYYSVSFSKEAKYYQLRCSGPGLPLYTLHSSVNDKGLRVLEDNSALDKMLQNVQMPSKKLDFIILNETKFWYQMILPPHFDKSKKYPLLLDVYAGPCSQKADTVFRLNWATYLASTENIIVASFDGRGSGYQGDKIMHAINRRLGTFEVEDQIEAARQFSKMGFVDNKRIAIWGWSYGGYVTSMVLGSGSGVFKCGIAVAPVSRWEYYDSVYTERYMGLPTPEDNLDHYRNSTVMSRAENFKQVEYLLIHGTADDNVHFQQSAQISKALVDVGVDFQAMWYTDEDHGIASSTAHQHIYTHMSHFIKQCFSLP
assay metric: Kd (µM)
Form entry: value (µM) — number only.

Req: For the molecule shown here, COc1cc2c(cc1O)-c1cc3ccc(OC)c(OC)c3c[n+]1CC2 , give the reported Kd.
Resp: 8.11

Req: And what about the molecule COc1cc2c(cc1O)CC[n+]1cc3c(OC)c(OC)ccc3cc1-2 ?
Resp: 12.1

Req: How about this molecule: c1c2c(cc3c1OCO3)-c1cc3ccc4c(c3c[n+]1CC2)OCO4
Resp: 13.8

Req: Try the molecule COc1cc2c(cc1O)CC[n+]1cc3c4c(ccc3cc1-2)OCO4
Resp: 15

* * *

Molecular target: DPP-4 (Homo sapiens)
Construct: purchased Cayman Chemical Company 700210
Assay: DPP-4 inhibition assay (commercial DPP-4 inhibitor screening assay kit, fluorescence)
Type: biochemical
Details: final concentration of 30 μM; read-out: DPP-4 inhibition (primary screening)
Task for the reader: assign each of the following compounds its reported inhibition at 30 µM.

Req: // query inhibition at 30 µM value for entry COc1cc2c(cc1OC)-c1cc3ccc(OC)c(OC)c3c[n+]1CC2 [palmatine]
Resp: > 40%

Req: Same for COc1cc2c(cc1OC)-c1cc3ccc4c(c3c[n+]1CC2)OCO4 [epiberberine]
Resp: > 40%

Req: Entry COc1cc2c(cc1O)-c1cc3ccc(OC)c(OC)c3c[n+]1CC2 [columbamine] please
Resp: > 40%

* * *

Target: DPP-4 (Homo sapiens)
Construct: purchased Cayman Chemical Company 700210
Test: DPP-4 inhibition assay (commercial DPP-4 inhibitor screening assay kit, fluorescence)
Format: biochemical
Conditions: dose-response curves; read-out: IC50 value of the DPP-4 inhibitory activity
pIC50: −log10 of the molar value.
Assign true (1) whenever pIC50 does not fall below 5; assign false (0) whenever it does.

Req: Hello, I need to know if COc1cc2c(cc1O)CC[n+]1cc3c(OC)c(OC)ccc3cc1-2 has measured pIC50 not below 5. Thanks!
Resp: false (0)

Req: Please answer likewise for COc1ccc2cc3[n+](cc2c1OC)CCc1cc(O)c(O)cc1-3
Resp: true (1)

Req: Same lookup for COc1cc2c(cc1O)-c1cc3ccc(OC)c(OC)c3c[n+]1CC2 , please.
Resp: true (1)

Req: Could you do the same for COc1cc2c(cc1OC)-c1cc3ccc4c(c3c[n+]1CC2)OCO4 [epiberberine] , please?
Resp: false (0)
